- Test system: MCF7 breast
- test description: NCI-60 one-dose screen, 48 h
- setup conditions: 10 µM unless noted
The panel holds about 83,000 compounds, 20% with a hit somewhere; the sample as a whole holds those more often. Calls of active or inactive are those of the source. How the source made its calls: active means growth percent below 10; inactive means the rest.
Outcomes: active, inactive

molecule	assigned label
c1ccc(-c2n[nH]c(-c3ccccn3)n2)nc1	inactive
COc1cc(OC)c(/C=C/C(=O)c2c(N)cc(OC)cc2OC)c(OC)c1	inactive
Nc1cc(N)c(N=Nc2ccc(S(=O)(=O)O)cc2)cc1N=Nc1ccc(-c2ccc(N=Nc3ccc(O)c(C(=O)O)c3)cc2)cc1	inactive
Cc1c(Cn2cc(COc3ccc(Br)cc3)nn2)c(C)c(Cn2cc(COc3ccc(Br)cc3)nn2)c(C)c1Cn1cc(COc2ccc(Br)cc2)nn1	inactive
N#C/C(C(=O)c1ccccc1)=C1/C(=O)Nc2ccccc21	inactive
C[C@]12CCc3nc(Nc4ccccc4)sc3C1=CC[C@@H]1[C@@H]2CC[C@]2(C)/C(=N/NC(N)=S)CC[C@@H]12	inactive
CCOC(=O)n1cc(C2=C(c3ccc(OC)c(OC)c3)COC2=O)c2ccccc21	inactive
CCN(CC)c1ccc(/C=C/C=C2\NC(=O)NC2=O)cc1	inactive
CC(C)(C)c1cc(C(=O)Nc2cc3ccccc3cc2C(=O)NCCN)cc(C(C)(C)C)c1	active
CCN(CCNc1ccc(C)c2sc3cc(Cl)ccc3c(=O)c12)CC(C)O (stereo not drawn)	inactive
COc1ccc2nc3c(cc2c1)C(=O)CC(c1ccccc1)C3 (stereo not drawn)	inactive
Cc1cnc(N)nc1OCCNC(=O)c1cccc(-c2ccc(S(=O)(=O)Nc3ccc4c(c3)N(C(=O)C3CC3)CCC4)cc2)c1	inactive
CCOC(=O)/C(C#N)=C(\C)CCc1ccccc1	inactive
CC1(C)NCCC[C@]2(C)[C@H]3C=CC4=C5C[C@](C)(CO)CC[C@]5(C)CC[C@@]4(C)[C@]3(C)CC[C@@H]12	active
COc1ccc2c(c1)C(C)Cc1c(Cl)ncnc1N2C (stereo not drawn)	active
Cc1ncc(C(=O)Nc2ccc(CN3CCN(C)CC3)c(C(F)(F)F)c2)cc1C#Cc1c(N)ncc2ccc(C#N)cc12	inactive
O=C(CCCSc1nc(-c2ccccc2)cc(-c2ccccc2)n1)NO	active
O=C(O)CSCc1nnc2n(Cc3ccccc3)c(=O)c3c4c(sc3n12)CCCC4	inactive
O=C(Nc1ccccc1)Nc1ccc(C(=O)/C=C/c2ccc(N3CCCC3)cc2)cc1	inactive
CCOC(=O)c1nn(C2CCCCO2)c2ccc(NC(=O)CN3CCOCC3)cc12 (stereo not drawn)	inactive
CCN(CC)CCCOc1ccc2c(c1)O/C(=C\c1cccc(OC)c1)C2=O	inactive
O=C(Nc1ccc(F)cc1)c1ccccc1	inactive
CC1(C)CC[C@]2(C(=O)O)CC[C@]3(C)C(=CC[C@@H]4[C@@]5(C)C/C(=C/c6cccnc6)[C@H](O)C(C)(C)[C@@H]5CC[C@]43C)[C@@H]2C1	active
C#CCNC(=O)CC[C@@H](C)[C@H]1CC[C@H]2[C@@H]3CC[C@@H]4CC(=O)CC[C@]4(C)[C@H]3CC[C@]12C	active
CCCCCN(CCCCC)CCCCCCCCN1CCCc2ccccc21	inactive
CCCn1ccnc1C(O)c1ccc(OCc2ccccc2)c(OC)c1 (stereo not drawn)	inactive
COc1cc(-c2cc(-c3ccc(Nc4ncnc5cc(Cl)ccc45)cc3)nc(N3CCCCC3)n2)cc(OC)c1OC	inactive
O=C(CSc1nccc(Nc2ccc(S(=O)(=O)Nc3ccccn3)cc2)n1)c1ccc(Cl)cc1	inactive
Cn1cc(-c2noc(-c3cn(C)c4ncccc34)n2)c2cc(Cl)ccc21	inactive
COc1ccc(/C=C/C(=C/c2c(O)[nH]c3cc(Br)ccc23)N=O)cc1	inactive
CN(Cc1cccc(C(F)(F)F)c1)C(=O)[C@@H](CC(=O)N1CCC(N2CCCCC2)CC1)N1C(=O)[C@@H](N2C(=O)OC[C@@H]2c2ccccc2)[C@H]1/C=C/c1ccccc1	inactive
CCn1cc(-c2[nH]c(=S)ncc2-c2ccc(Cl)cc2)c(-c2ccc(Br)cc2)n1	inactive
CC(C)=CCC[C@](C)(O)[C@H]1CC[C@]2(C)[C@@H]1CC[C@@H]1[C@@]3(C)CC[C@H](OC(=O)CCC(=O)O)C(C)(C)[C@@H]3CC[C@]12C	inactive
COc1ccc(/C=C(/C(=O)c2ccc(Cl)cc2)C(=O)C(F)(F)F)cc1	inactive
Brc1ccc2c(c1)CN(C1CCCCC1)CO2	inactive
CNc1cc(C(=O)O)nc(NC)n1	inactive
CCN1CCN(CC(=O)Nc2nc3ccc(NCc4ccc(Cl)cc4)cc3s2)CC1	inactive
Clc1ccccc1/C=N\Nc1ccccn1	inactive
